Cited source: PubChem BioAssay AID1919005

# Test system: 855422-203-R-J1-PDC complex spheroid growth;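 note: spheroids exposed to agents for seven days before readout; percent of DMSO vehicle control luminescence viability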
# ASSAY PROCEDURE: Anticancer human tumor 855422-203-R-J1-PDC patient-derived bladder carcinoma cell line growth inhibition [AhR]
# ASSAY SETUP: second compound 0.1 µM; first compound 1 µM; stronger effect = lower value
OUTCOME MEASURE: viability, T/C (%)

>>> recorded_number("Nc1ncn(C2CC(O)C(CO)O2)c(=O)n1 (configuration not stated) + Cc1cncc(-c2nc(NCCc3c[nH]c4ccccc34)c3ncn(C(C)C)c3n2)c1")
77.5
>>> recorded_number("CC(C)c1c(-c2ccccc2)nc2c(C#N)c[nH]n2c1=O + CC(CO)NC(=O)c1cc(-c2ccc(Cl)cc2)nn(-c2cnn(C)c2)c1=O")
85.6
>>> recorded_number("COc1cc(C2c3cc4c(cc3C(OC3OC5COC(C)OC5C(O)C3O)C3COC(=O)C23)OCO4)cc(OC)c1O (configuration not stated) + CC(CO)NC(=O)c1cc(-c2ccc(Cl)cc2)nn(-c2cnn(C)c2)c1=O")
25.6
>>> recorded_number("Nc1ccccc1NC(=O)c1ccc(CNC(=O)OCc2cccnc2)cc1 + CC(CO)NC(=O)c1cc(-c2ccc(Cl)cc2)nn(-c2cnn(C)c2)c1=O")
89.5
>>> recorded_number("NS(=O)(=O)OCC1CC(n2ccc3c(NC4CCc5ccccc54)ncnc32)CC1O (configuration not stated) + CC(CO)NC(=O)c1cc(-c2ccc(Cl)cc2)nn(-c2cnn(C)c2)c1=O")
43.2
>>> recorded_number("O=C(C=Cc1cccc(S(=O)(=O)Nc2ccccc2)c1)NO + Cc1cncc(-c2nc(NCCc3c[nH]c4ccccc34)c3ncn(C(C)C)c3n2)c1")
62.5
>>> recorded_number("CC1(C)CCC(CN2CCN(c3ccc(C(=O)NS(=O)(=O)c4ccc(NCC5CCOCC5)c([N+](=O)[O-])c4)c(Oc4cnc5[nH]ccc5c4)c3)CC2)=C(c2ccc(Cl)cc2)C1 + Cc1cncc(-c2nc(NCCc3c[nH]c4ccccc34)c3ncn(C(C)C)c3n2)c1")
117
>>> recorded_number("O=C(C=Cc1cccc(S(=O)(=O)Nc2ccccc2)c1)NO + CC(CO)NC(=O)c1cc(-c2ccc(Cl)cc2)nn(-c2cnn(C)c2)c1=O")
71.7
>>> recorded_number("Nc1ccn(C2OC(CO)C(O)C2(F)F)c(=O)n1 (configuration not stated) + Cc1cncc(-c2nc(NCCc3c[nH]c4ccccc34)c3ncn(C(C)C)c3n2)c1")
12.1
>>> recorded_number("Nc1ncn(C2CC(O)C(CO)O2)c(=O)n1 (configuration not stated) + Cc1ccccc1N=Nc1ccc(NC(=O)c2ccnn2C)c(C)c1")
86.4
>>> recorded_number("CC(C)c1c(-c2ccccc2)nc2c(C#N)c[nH]n2c1=O + Cc1cncc(-c2nc(NCCc3c[nH]c4ccccc34)c3ncn(C(C)C)c3n2)c1")
95.9
>>> recorded_number("O=C(c1cc(Cc2n[nH]c(=O)c3ccccc23)ccc1F)N1CCN(C(=O)C2CC2)CC1 + Cc1ccccc1N=Nc1ccc(NC(=O)c2ccnn2C)c(C)c1")
95.1
